- target-desc: Recombinant human renin (Homo sapiens, UniProt P00797)
- Construct: isolate the active form (residues 67-406); made in house; host or cells: FreeStyle 293-F cells, transient expression of pcDNA3.1(+)/hREN
- Sequence (P00797 67-406): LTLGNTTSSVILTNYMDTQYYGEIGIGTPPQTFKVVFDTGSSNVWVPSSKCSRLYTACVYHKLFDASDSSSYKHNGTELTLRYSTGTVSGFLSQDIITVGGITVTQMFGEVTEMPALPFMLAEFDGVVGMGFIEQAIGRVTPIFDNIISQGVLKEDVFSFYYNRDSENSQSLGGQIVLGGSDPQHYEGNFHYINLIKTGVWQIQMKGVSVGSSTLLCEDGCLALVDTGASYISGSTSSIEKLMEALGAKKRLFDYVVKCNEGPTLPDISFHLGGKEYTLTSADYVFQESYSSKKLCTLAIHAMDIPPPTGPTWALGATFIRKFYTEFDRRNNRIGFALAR
- method-description: In vitro enzymatic activity assay of renin inhibitors (fluorescence, QXL520/HiLyteFluo488 peptide substrate)
- Type: biochemical
- condition-set: recombinant human renin 3 nM, 1 μM substrate, pre-incubated 10 minutes at 37° C., incubation one hour, pH 7.4, 5% DMSO; read-out: IC50 of Exemplified Compounds Against Renin
pIC50: −log10 of the molar value.
Exercise: for every item that follows, state its recorded pIC50.

• O=C(c1c(-c2ccccc2)n(-c2ccccc2)c(=O)n1Cc1cccc(-n2cccc2)c1)N1CCNCC1 [Example 88] = > 7.00
• N#Cc1ccccc1Cn1c(C(=O)N2CCNCC2)c(-c2ccccc2)n(-c2ccccc2)c1=O [Example 85] = < 6.00
• Cc1ccccc1-n1c(-c2ccccc2)c(C(=O)N2CCNCC2)n(CCNC(=O)Nc2ccccc2)c1=O [Example 211] = 6.30 to 7.00

# map each compound to its pIC50
1. O=C(c1[nH]c(=O)n([C@H]2CCCC[C@@H]2O)c1-c1ccccc1)N1CCNC[C@H]1Cc1ccccc1 [Example 126]
2. O=C(c1[nH]c(=O)n(-c2ccc3c(c2)NCCC3)c1-c1ccccc1)N1CCNC[C@H]1CCOc1ccccc1 [Example 140]
3. O=C(c1[nH]c(=O)n(-c2ccccc2)c1-c1ccccc1)N1CCNCC1 [Example 18]
4. O=C(c1c(-c2ccccc2)n(-c2cccc(N3CCOCC3)c2)c(=O)n1CCCNS(=O)(=O)c1ccccc1)N1CCNCC1 [Example 175]
5. COc1ccccc1-n1c(-c2ccccc2)c(C(=O)N2CCNCC2)n(Cc2ccc(F)c(F)c2)c1=O [Example 148]

> 7.00
> 7.00
< 6.00
6.30 to 7.00
< 6.00

====

Assignment: determine reported IC50 for the given molecules.
- target-desc: Recombinant human renin (Homo sapiens)
- Construct: isolate the active form (residues 67-406); made in house; host or cells: FreeStyle 293-F cells, transient expression of pcDNA3.1(+)/hREN
- method-description: In vitro enzymatic activity assay of renin inhibitors (fluorescence, QXL520/HiLyteFluo488 peptide substrate)
- Format: biochemical
- condition-set: recombinant human renin 3 nM, 1 μM substrate, pre-incubated 10 minutes at 37° C., incubation one hour, pH 7.4, 5% DMSO; read-out: IC50 of Exemplified Compounds Against Renin

Worked cases, answers included:
* Cc1ccccc1-n1c(-c2ccccc2)c(C(=O)N2CCNCC2)n(CCNS(=O)(=O)c2ccc(Cl)cc2)c1=O | > 1 µM
* COc1cccc(NC(=O)NCCn2c(C(=O)N3CCNCC3)c(-c3ccccc3)n(-c3ccccc3C)c2=O)c1 | 0.1 to 0.5 µM
* O=C(c1c(-c2ccccc2)n(-c2cccc(N3CCOCC3)c2)c(=O)n1CCCNS(=O)(=O)c1cccc(Cl)c1)N1CCNCC1 | 0.5 to 1 µM
* COCCCOc1cccc(-n2c(-c3cccc(Cl)c3)c(C(=O)N3CCNCC3)[nH]c2=O)c1 | > 1 µM

Consider the record given below.
Look up IC50 with Recombinant human renin (Homo sapiens) for this molecule: `O=C(Nc1ccccc1-n1c(-c2ccccc2)c(C(=O)N2CCNC[C@H]2Cc2ccccc2)[nH]c1=O)c1ccccc1` < 0.1 µM

The measurements presented in this section are drawn from patent US8148367B2.
